Biological target: CSF-1R (Homo sapiens)
Sequence (P07333 20-972): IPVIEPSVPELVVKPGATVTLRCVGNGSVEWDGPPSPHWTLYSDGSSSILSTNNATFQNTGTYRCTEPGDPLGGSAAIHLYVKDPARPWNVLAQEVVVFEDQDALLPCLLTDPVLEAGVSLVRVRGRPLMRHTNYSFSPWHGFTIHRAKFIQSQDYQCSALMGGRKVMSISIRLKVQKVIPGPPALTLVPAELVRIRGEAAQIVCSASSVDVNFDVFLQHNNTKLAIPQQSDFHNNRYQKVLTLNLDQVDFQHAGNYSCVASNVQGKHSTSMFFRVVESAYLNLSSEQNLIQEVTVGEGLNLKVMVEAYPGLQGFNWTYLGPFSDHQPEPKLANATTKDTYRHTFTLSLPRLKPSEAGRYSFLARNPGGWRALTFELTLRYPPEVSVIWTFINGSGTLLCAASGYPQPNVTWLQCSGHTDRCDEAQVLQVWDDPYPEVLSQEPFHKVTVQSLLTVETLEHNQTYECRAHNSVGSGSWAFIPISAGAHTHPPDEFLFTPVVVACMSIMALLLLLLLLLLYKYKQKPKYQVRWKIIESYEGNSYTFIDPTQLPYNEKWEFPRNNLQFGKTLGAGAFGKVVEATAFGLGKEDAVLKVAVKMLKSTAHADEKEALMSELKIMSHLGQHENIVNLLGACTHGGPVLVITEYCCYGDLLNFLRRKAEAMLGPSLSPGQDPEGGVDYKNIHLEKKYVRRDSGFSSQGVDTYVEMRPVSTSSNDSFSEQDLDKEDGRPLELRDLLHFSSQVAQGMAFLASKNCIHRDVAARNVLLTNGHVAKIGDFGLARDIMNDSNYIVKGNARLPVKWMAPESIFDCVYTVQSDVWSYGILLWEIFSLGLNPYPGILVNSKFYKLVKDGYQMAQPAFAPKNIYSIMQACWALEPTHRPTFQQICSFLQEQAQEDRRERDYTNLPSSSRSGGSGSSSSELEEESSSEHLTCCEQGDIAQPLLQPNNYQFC
Assay: Peptide (non-phosphorylated) assay, fluorescence polarization competition immunoassay
Format: biochemical
Conditions: 0.7 nM CSF-1R, 308 μM SYEGNSYTFIDPTQ peptide, 1 mM ATP, 80 min; mean of at least three determinations; read-out: c-fms Peptide IC50
pIC50: −log10 of the molar value.
Decide by pIC50: equal to or exceeding 9 means criterion met, less means criterion not met.

compound	class assignment
CONC(=O)c1cn(C2CCCCC2)c2nc(Nc3ccc(C4CCN(C(C)=O)CC4)cc3)ncc2c1=O [Cpd 28]	criterion not met
CONC(=O)c1cn(-c2ccc3c(c2)CCC3)c2nc(Nc3cccc(N4CCN(C)CC4)c3)ncc2c1=O [Cpd 324]	criterion met
CONC(=O)c1cn(-c2ccc3c(c2)CCC3)c2nc(Nc3ccc(CCc4n[nH]c(C)n4)cc3)ncc2c1=O [Cpd 172]	criterion not met

Please look at the following compound next.
Exercise: Dear colleague, could you confirm whether CONC(=O)c1cn(-c2ccc3c(c2)CCC3)c2nc(Nc3cccc(C4CCCN(C)C4)c3)ncc2c1=O (stereo not shown) [Cpd 271] has pIC50 at or above 9?
Solution: criterion not met

Just for reference, patent US20080114007A1 is where these values come from.
